System: SN12C renal
Assay: NCI tumour cell line growth inhibition, 48 h
endpoint_label: GI50

INSERT INTO measurements (compound, endpoint_label, measured_value) VALUES
  ('C[C@@H](CS(C)(=O)=O)Nc1ncc2cc(Oc3ccc(F)cc3F)c(=O)n(C)c2n1', 'GI50', '> 25 µM'),
  ('CSc1ccccc1C#C/C=C\C#Cc1ccccc1N1CCCC1=O', 'GI50', '> 26.2 µM'),
  ('CC1(C)COC(c2ccc(C(F)(F)F)cc2C(O)c2ccc3ccccc3c2)=N1 (stereo not given)', 'GI50', '> 100 µM'),
  ('O=C(Nc1ccc(I)cc1)c1cc([N+](=O)[O-])ccc1O', 'GI50', '4.61 µM');

## Input Look up and report measured GI50 for this entry: Fc1ccc(Nc2ncnc3ccc(-c4cnc5[nH]ccc5c4)cc23)cc1Cl
## Output 1.73 µM

* * *

Catalogue of GI50 readings, one per entry.
Tested on: DU-145 prostate
Assay: NCI tumour cell line growth inhibition, 48 h

Use these answered entries as a reference point.
INSERT INTO assay_data (compound, endpoint_label, measured_value) VALUES
  ('NC(CSC(c1ccccc1)(c1ccccc1)c1ccc2c(c1)OCO2)C(=O)O (stereo unspecified)', 'GI50', '2330 nM'),
  ('COc1ccc2c(c1)C(=O)/C(=C/c1ccc(OCC(=O)Nc3nccs3)cc1)O2', 'GI50', '504 nM'),
  ('COc1c2ccoc2c(/C=C/C=O)c2oc(-c3ccccc3)cc(=O)c12', 'GI50', '10700 nM'),
  ('Cn1ccnc1C(=O)/C=C/c1ccc(CC(=O)Nc2ccc(Br)cc2)cc1', 'GI50', '3930 nM'),
  ('O=[N+]([O-])c1cnc(Sc2ccncn2)s1', 'GI50', '1800 nM');

// moving on: another record for GI50
## Input State its GI50: NC1CCC(Nc2nc(NCc3ccc(-c4ccco4)nc3)c3ncn(C4CCCC4)c3n2)CC1 (stereo unspecified)
## Output 42.6 nM

* * *

Test system: MDA-N
Test: NCI tumour cell line growth inhibition, 48 h
endpoint_label: TGI

INSERT INTO measurements (compound, endpoint_label, measured_value) VALUES
  ('O=C1OCN(c2ccccc2)C12CCN(Cc1ccccc1)CC2', 'TGI', '62.3 µM');

Please find the next compound below.
## Input Determine from records and report TGI for Cn1c2ccc([N+](=O)[O-])cc2c(=O)n1Cc1ccccc1F
## Output > 100 µM

* * *

System: ACHN renal
Assay: NCI tumour cell line growth inhibition, 48 h
Catalogue of TGI readings, one per entry.

Worked examples follow.
INSERT INTO measurements (molecule, measured_value) VALUES
  ('CC(=O)N1[C@H](C(=O)O)CS[C@H]1c1ccncc1', '> 100 µM'),
  ('CCNC1C2(CCCCC2)NC(=O)C12CCCCC2 (stereo not given)', '> 100 µM'),
  ('O=C(Nc1ccc(I)cc1)c1cc([N+](=O)[O-])ccc1O', '> 100 µM'),
  ('FC(F)(F)c1ccc(C2SCc3nc4ccccc4n32)cc1 (stereo not given)', '> 100 µM'),
  ('N#Cc1cccc2c1Sc1ccccc1N2', '> 100 µM');

## Input Identify TGI associated with the molecule CC1=C(C(=O)Nc2ccccc2C)C(c2ccco2)C(C(=O)Nc2ccccc2C)=C(C)N1C
## Output > 100 µM

## Input Quote TGI reported for COC(=O)[C@@]12C3=NO[C@]1(C(=O)OC)C(O[Si](C)(C)C(C)(C)C)[C@H]1OC(C)(C)O[C@H]1[C@@H]2C(OCc1ccccc1)CC3 (stereo not given in full) please.
## Output 28 µM

## Input Please list TGI recorded for the molecule CCCCCCCC(=O)SCC/C=C/[C@@H]1CC(=O)NCc2cccc(n2)C2=N[C@@](C)(CS2)C(=O)N[C@@H](C(C)C)C(=O)N1
## Output > 33.3 µM

## Input Return value of TGI for input NC(=O)c1ccc(C(=O)Nc2ccc([As](=O)(O)O)cc2)cc1 , no commentary.
## Output > 100 µM

## Input Please give the documented TGI of CN(Cc1cnc2nc(N)nc(N)c2n1)c1ccc(C(=O)NCCS(=O)(=O)O)cc1
## Output > 100 µM

* * *

Tested on: SK-MEL-28 melanoma
Assay: NCI tumour cell line growth inhibition, 48 h
Form field: TGI (one value per entry).
Express the result in µM but write the number alone.

Illustrative cases are given below, each with its answer.
INSERT INTO results (smiles, endpoint_label, units_symbol, measured_value) VALUES
  ('c1ccc(C(C2=Nc3cccc4cccc(c34)N2)c2ccccc2)cc1', 'TGI', 'µM', 52),
  ('O=c1cc(-c2cccc(O)c2)[nH]c2cc3c(cc12)OCO3', 'TGI', 'µM', 83.5),
  ('COc1c2ccoc2c(/C=C/C=O)c2oc(-c3ccccc3)cc(=O)c12', 'TGI', 'µM', 9.17);

With those in mind, consider the next compound.
## Input Retrieve TGI measured for Cc1nc2c(nc1C)C(=O)c1ccccc1C2=O and print it.
## Output 4.76

* * *

A collection of compounds and their measured TGI
Tested on: NCI-H226 lung
Assay: NCI tumour cell line growth inhibition, 48 h

INSERT INTO results (compound, measured_on, measured_value) VALUES
  ('Cn1ccnc1C(=O)/C=C/c1ccc(CC(=O)Nc2ccc(Br)cc2)cc1', 'NCI-H226 lung', '> 16.7 µM'),
  ('CN(CC(=O)N1CC(CCl)c2ccc([N+](=O)[O-])cc21)CC(=O)N1CC(CCl)c2ccc([N+](=O)[O-])cc21 (centres undefined)', 'NCI-H226 lung', '> 100 µM'),
  ('COc1cc2nc(C)nc(N[C@H](C)c3cc(N)cc(C(F)(F)F)c3)c2cc1O[C@H]1CCOC1', 'NCI-H226 lung', '38.8 µM'),
  ('CCOC(=O)Nc1nc2ccc(OCC)cc2s1', 'NCI-H226 lung', '> 100 µM'),
  ('CC(=O)C(CN(C(C)C)C(C)C)C(c1ccccc1)c1c(O)c2ccccc2oc1=O (centres undefined)', 'NCI-H226 lung', '> 100 µM');

## Input Supply recorded TGI for NC(CCc1nc(-c2ccc(Cl)cc2)cs1)C(=O)O (centres undefined) here.
## Output > 100 µM

## Input Tell us which TGI value is on record for C[N+](C)(CCCn1ccnc1[N+](=O)[O-])CCCn1ccnc1[N+](=O)[O-]
## Output > 100 µM

## Input Assign TGI to the following record: C=C(CNCCO)[C@@H]1CC[C@]2(CO)CC[C@]3(C)[C@H](CC[C@@H]4[C@@]5(C)CCC(N)C(C)(C)[C@@H]5CC[C@]43C)[C@@H]12 (some centres undefined)
## Output 27.9 µM

## Input Determine its reported TGI: O=c1n(CC2CO2)c(=O)n(CC2CO2)n1CC1CO1 (centres undefined)
## Output > 100 µM

* * *

Test system: PC-3 prostate
Experiment: NCI tumour cell line growth inhibition, 48 h
endpoint_label: TGI (µM)
Give a bare numeral; the unit µM is implied.

Below are worked cases with known answers.
INSERT INTO assay_data (compound, measured_on, endpoint_label, measured_value) VALUES
  ('O[C@H]1[C@H]2c3cc4c(cc3CN3CCC(=C[C@@H]1O)[C@H]23)OCO4', 'PC-3 prostate', 'TGI', 5.34),
  ('Cc1cc(=O)n2[nH]c(-c3ccc(C(C)(C)C)cc3)cc2n1', 'PC-3 prostate', 'TGI', 40.6),
  ('COc1cc2nc(C)nc(N[C@H](C)c3cc(N)cc(C(F)(F)F)c3)c2cc1O[C@H]1CCOC1', 'PC-3 prostate', 'TGI', 23.4),
  ('Fc1ccc(Nc2ncnc3ccc(-c4cnc5[nH]ccc5c4)cc23)cc1Cl', 'PC-3 prostate', 'TGI', 27.3);

## Input For CC1=C(C(=O)Nc2ccc(F)c(Cl)c2)C(c2ccc(Cl)cc2)NC(=O)N1 (stereo unspecified) , write its TGI.
## Output 31.9

## Input Specify reported TGI for the compound shown: O=C(Nc1ccc(I)cc1)c1cc([N+](=O)[O-])ccc1O
## Output 23.4

* * *

Test system: TK-10 renal
Experiment: NCI tumour cell line growth inhibition, 48 h
TGI values for the molecules below.

INSERT INTO assay_data (molecule, measured_on, endpoint_label, measured_value) VALUES
  ('Nc1ccccc1-c1noc(=O)[nH]1', 'TK-10 renal', 'TGI', '> 100 µM'),
  ('O=C(N/C(=C\c1cc(Cl)ccc1Cl)c1nc2[nH]c(=S)[nH]c(=O)c2[nH]1)c1ccccc1', 'TK-10 renal', 'TGI', '> 100 µM');

## Input Annotate the molecule CC(C)c1ccc(C(C)C(=O)N(CC2=C(C(C)c3ccccn3)c3ccccc3C2)C(C)C)cc1 (centres undefined) with its measured TGI.
## Output > 100 µM

## Input Complete the entry with TGI for COc1ccc(/C=C\c2cc(OC)c3c(c2)OCO3)c(O)c1O
## Output > 86.6 µM

## Input Output measured TGI for this item: C=CC[C@H]1O[Si](C(C)(C)C)(C(C)(C)C)[C@H](C)[C@H]1C
## Output > 100 µM

## Input Specify measured TGI for CN(C)CCCNC1=C(Cl)C(=O)c2ccccc2C1=O .
## Output 29 µM

## Input Dear colleague, please send me the reported TGI for Nc1ccc(C(=O)N/C(=C\c2ccc3c(c2)OCO3)c2nc3[nH]c(=S)[nH]c(=O)c3[nH]2)cc1 when you can.
## Output > 100 µM

## Input Output TGI of O=C1N(Cl)C(=O)C(c2ccc(Cl)cc2)(c2ccc(Cl)cc2)N1Cl
## Output > 100 µM

## Input Note TGI for the molecule shown: S=c1nc2sc3c(c2c(Nc2ccc(Cl)cc2)[nH]1)CCCC3
## Output > 100 µM

FYI, the data here is from PubChem BioAssay (NCI).
